Below, each entry is listed alongside its reported GI50.
# Tested on: OVCAR-5
# PROTOCOL_SUMMARY: NCI tumour cell line growth inhibition, 48 h
The source made the active and inactive calls. Rule as the data show it: active = GI50 up to about 1.1 µM and inactive = higher.

Reference set (3 entries):
>>> result("N=C(N)NCC[C@H](NC(=O)OCCCCCn1ccc(=O)[nH]c1=O)C(=O)O")
"> 100 µM (inactive)"
>>> result("Cc1ncc([N+](=O)[O-])n1CCNC(=O)CCCn1cnc([N+](=O)[O-])n1")
"> 100 µM (inactive)"
>>> result("COc1ccc2oc3c(C)cc4c(OC)nnc(OC)c4c3c2c1")
"> 100 µM (inactive)"

**Query** // lookup GI50 for `C[C@H](C(=O)N1C(=O)O[C@@H](c2ccccc2)[C@H]1C)[C@H](c1ccccc1)N(Cc1ccccc1)OC(=O)c1ccccc1`
**Result** 68.1 µM (inactive)

**Query** // lookup GI50 for `Cc1noc2cccc(OCc3ccccc3)c12`
**Result** 25.6 µM (inactive)

**Query** // lookup GI50 for `COc1cc(Nc2nc3ccccc3nc2C(C)C)cc(OC)c1OC`
**Result** > 100 µM (inactive)

**Query** // lookup GI50 for CC(O)CCNC(=O)Nc1c(C(F)(F)F)cc(-c2ccccc2)[nH]c1=O (stereo not given)
**Result** > 100 µM (inactive)

**Query** // lookup GI50 for `COc1cc(/C=C2\C[C@H]3[C@@H]4CC=C5C[C@@H](N6CCCC6)CC[C@]5(C)[C@H]4CC[C@]3(C)[C@H]2O)cc(OC)c1OC`
**Result** 8.79 µM (inactive)

**Query** // lookup GI50 for `COCc1cc2c(cc1/C(=C/[N+](=O)[O-])CS(=O)(=O)c1ccccc1)OCO2`
**Result** > 100 µM (inactive)

**Query** // lookup GI50 for CC1CC(N)=C(C#N)C1(C#N)C#N (stereo not given)
**Result** > 100 µM (inactive)
